- system: T1, Aβ1–42 fibrils (UniProt P05067 672-713)
- T1 construct: amyloid-β peptide Aβ1–42, cut from the amyloid precursor protein (APP), in fibrillar form; Aggregated (fibrillar) state of the same peptide as m15; also called fibrillar Aß1–42; Aβ fibrils; source: bought: JPT Biotech or Bachem AG (HPLC purified peptide); fibrils formed at 37°C (7 days in PBS pH 7.4 for SPR; five days in 50 mM Tris-HCl pH 7.4 for ELISA)
- T1 sequence (P05067 672-713): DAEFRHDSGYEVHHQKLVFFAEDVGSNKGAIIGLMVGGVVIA
- assay overview: SPR; Biacore T100, single-cycle mode, 25°C; Aβ1–42 fibrils immobilised on a CM5 chip by amine coupling; PBS pH 7.4, 30 µl/min; 100 to 62500 nM in fivefold steps, 60 s each; heterogeneous ligand model
- condition parameters: both partners purified
Square brackets hold non-standard residues; d marks the D form. Primed or numbered codes have the meaning given here. Ends that are not written are not given here. FITC′ = fluorescein isothiocyanate (ϕ)
measured property: K D2 (heterogeneous ligand model, site 2)

| binder | meas value |
| --- | --- |
| [dQ][dS][dH][dY][dR][dH][dI][dS][dP][dA][dQ][dV][dK](FITC′) (D-enantiomeric peptide ACI-80 (D1), selected by mirror image phage display on aggregated Aβ1–42, with an added C-terminal lysine; also called D1-Kϕ; source: synthetic peptide (JPT Peptide Technologies GmbH, Berlin)) [ACI-80-Kϕ] | 0.000115 |
| [dQ][dS][dH][dY][dR][dH][dI][dS][dP][dA][dQ][dK][dK](FITC′) (D-enantiomeric derivative of ACI-80 (D1): V12K, added C-terminal lysine; also called D1-V12K-Kϕ; source: synthetic peptide (JPT Peptide Technologies GmbH, Berlin)) [ACI-87-Kϕ] | 2.59e-05 |
| [dS][dH][dY][dR][dH][dI][dS][dP][dA][dQ][dK][dK](FITC′) (D-enantiomeric derivative of ACI-80 (D1): N-terminal glutamine deleted (Q1X), V12K, added C-terminal lysine; also called D1-Q1X-V12K-Kϕ; source: synthetic peptide (JPT Peptide Technologies GmbH, Berlin)) [ACI-88-Kϕ] | 5.95e-05 |
| [dP][dS][dH][dY][dR][dH][dI][dS][dP][dA][dQ][dK][dK](FITC′) (D-enantiomeric derivative of ACI-80 (D1): Q1P, V12K, added C-terminal lysine; also called D1-Q1P-V12K-Kϕ; source: synthetic peptide (JPT Peptide Technologies GmbH, Berlin)) [ACI-89-Kϕ] | 3.53e-06 |
